Recorded abundance fitness values for a group of variants are listed next.
B1: KAT8 regulatory NSL complex subunit 2, residues 28 to 91; numbered along this chain, Q9H9L4 (parent)
chain: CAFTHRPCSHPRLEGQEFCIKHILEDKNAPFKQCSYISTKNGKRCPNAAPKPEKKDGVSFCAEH

# Variants of: B1
# assayNotes: abundance fitness (aPCA) (normalised: wild type 0, dead -1); higher = more abundant; growth selection in yeast, the domain comes from the species named
# experimentalParameters: Homo sapiens
experimentalReadout: abundance fitness

[[record]]
variantcode = "T39L"
experimentalreadout = "abundance fitness"
val = -0.209

[[record]]
variantcode = "F31P"
experimentalreadout = "abundance fitness"
val = -0.183

[[record]]
variantcode = "F3A"
experimentalreadout = "abundance fitness"
val = -0.318

[[record]]
variantcode = "I23Q"
experimentalreadout = "abundance fitness"
val = -0.136

[[record]]
variantcode = "P7H"
experimentalreadout = "abundance fitness"
val = -0.133

[[record]]
variantcode = "F3E"
experimentalreadout = "abundance fitness"
val = -0.285

[[record]]
variantcode = "D56P"
experimentalreadout = "abundance fitness"
val = -0.096

[[record]]
variantcode = "T4K"
experimentalreadout = "abundance fitness"
val = -0.378

[[record]]
variantcode = "T39D"
experimentalreadout = "abundance fitness"
val = -0.101

[[record]]
variantcode = "A2L"
experimentalreadout = "abundance fitness"
val = -0.152

[[record]]
variantcode = "K27R"
experimentalreadout = "abundance fitness"
val = -0.12

[[record]]
variantcode = "C8V"
experimentalreadout = "abundance fitness"
val = -0.949

[[record]]
variantcode = "F31I"
experimentalreadout = "abundance fitness"
val = -0.391

[[record]]
variantcode = "C34S"
experimentalreadout = "abundance fitness"
val = -0.321

[[record]]
variantcode = "Q33A"
experimentalreadout = "abundance fitness"
val = 0.011

[[record]]
variantcode = "H22M"
experimentalreadout = "abundance fitness"
val = -1.16

[[record]]
variantcode = "G15F"
experimentalreadout = "abundance fitness"
val = -0.406

[[record]]
variantcode = "A62I"
experimentalreadout = "abundance fitness"
val = -0.057

